Test system: Panc10.05-G12D
PROTOCOL_DETAILS: Viability assay (CellTiterBlue, 72 hr) Panc10.05
Assay type: cell-based
TEST_SETTINGS: Homo sapiens, Panc1005, GI50, CellTiterBlue, Panc10.05 K-Ras G12D, read-out: 72 hr Cell Viability Panc10.05 (G12D)
REPORTED_METRIC: pIC50
Units for pIC50: none; it is -log10 of a concentration expressed in mol/L.

Request: Fill in the blank: the reported pIC50 of "Cc1nc(C)c(C(=O)Nc2nc(-c3ccc4c(c3)CCC(=O)N4Cc3cccnc3)cs2)o1" is ____.
Result: 5.15

Request: Okay, and "Cc1nc(C(C)C)sc1C(=O)Nc1nc(-c2ccc3c(c2)CCC(=O)N3Cc2cccnc2)cs1" ?
Result: 5.70

Request: Okay, and Cc1nc(C2CCOC2)sc1C(=O)Nc1nc(-c2ccc3c(c2)CCC(=O)N3Cc2cccnc2)cs1 (stereo not shown) ?
Result: 5.15

====

Tested on: phospho-ERK in Panc1 (G12D)
PROTOCOL_DETAILS: In-Cell Western phospho-ERK, Panc1
Format: cell-based
TEST_SETTINGS: Homo sapiens, PANC-1, 1 h; Panc1, one hour treatment; read-out: In-Cell Western Panc1 (G12D) Erk (P)
For each of the molecules below, state its log10 EC50.
Heads up, the numbers here are log10 of EC50 in µM units.

Request: Fill in the blank: the reported log10 EC50 of "CCn1nc(C)c(C(=O)Nc2nc(-c3ccc4c(c3)CCC(=O)N4Cc3cccnc3)cs2)c1C" is ____.
Result: 0.04

Request: Okay, and "Cc1nc(C)c(C(=O)Nc2nc(-c3ccc4c(c3)CCC(=O)N4CCN(C)C)cs2)o1" ?
Result: 0.70

Request: Okay, and "Cc1nc(C)c(C(=O)Nc2nc(-c3ccc4c(c3)CCC(=O)N4CC3CC3)cs2)o1" ?
Result: 0.70

Request: Okay, and "Cc1nc(C)c(C(=O)Nc2nc(-c3ccc4c(c3)CCC(=O)N4Cc3cccnc3)cs2)s1" ?
Result: 0.70

Request: Okay, and Cc1nc(C)c(C(=O)Nc2nc(-c3ccc4c(c3)CCC(=O)N4CC3CCCOC3)cs2)o1 (stereo not shown) ?
Result: 0.48

Request: Okay, and "Cc1nc(C2CC2)oc1C(=O)Nc1nc(-c2ccc3c(c2)CCC(=O)N3)cs1" ?
Result: 0.60

Request: Okay, and "Cc1nc(C2CC2)oc1C(=O)Nc1nc(-c2ccc3c(c2)CCC(=O)N3CCc2ccccc2)cs1" ?
Result: -0.28

Request: Okay, and "Cc1nc(C)c(C(=O)Nc2nc(-c3ccc4c(c3)CCC(=O)N4C3CCCC3)cs2)o1" ?
Result: 0.90

Request: Okay, and "CCc1nc(C)c(C(=O)Nc2nc(-c3ccc4c(c3)CCC(=O)N4CCOC)cs2)o1" ?
Result: 0.48

Request: Okay, and "COCCN1C(=O)CCc2cc(-c3csc(NC(=O)c4oc(C)nc4C)n3)ccc21" ?
Result: 1.00

Request: Okay, and "Cc1nn(C(C)C)cc1C(=O)Nc1nc(-c2ccc3c(c2)CCC(=O)N3Cc2cccnc2)cs1" ?
Result: 0.48

Request: Okay, and "CCc1nc(C)c(C(=O)Nc2nc(-c3ccc4c(c3)CCC(=O)N4Cc3cccnc3)cs2)s1" ?
Result: 0.70
